System: THP-1
experiment-notes: 72 h MTT cell viability THP-1
Assay type: cell-based
condition-parameters: Homo sapiens, THP-1; read-out: Cell Viability IC50 THP-1
result-type: IC50 (nM)
Report as a plain number; the unit nM is understood.

>>> recorded_value("CCCn1cc(-c2ccnc(Nc3cccc(S(N)(=O)=O)c3)n2)c2cccnc21")
3260
>>> recorded_value("CCCn1cc(-c2ccnc(Nc3cccc(S(N)(=O)=O)c3)n2)c2ccncc21")
10
>>> recorded_value("CCn1cc(-c2ccnc(Nc3cccc(S(N)(=O)=O)c3)n2)c2cccnc21")
5370
>>> recorded_value("CCCn1cc(-c2ccnc(Nc3ccc(S(N)(=O)=O)cc3)n2)c2ccncc21")
4
>>> recorded_value("CCn1cc(-c2ccnc(Nc3cccc(C#N)c3)n2)c2cccnc21")
2080
>>> recorded_value("CCCn1cc(-c2ccnc(Nc3cccc(S(N)(=O)=O)c3)n2)c2ccnc(Cl)c21")
360
>>> recorded_value("CCn1cc(-c2ccnc(Nc3cccc(S(N)(=O)=O)c3)n2)c2ccnc(Cl)c21")
2740

q: Could you please provide reported IC50 for CCCn1cc(-c2ccnc(Nc3ccc(C)c(S(=O)(=O)N4CCOCC4)c3)n2)c2cccnc21 ? Thanks!
a: 5250

====

tested-system: Aurora A (Homo sapiens)
Construct: purchased Invitrogen PV3612
Sequence (O14965 1-403): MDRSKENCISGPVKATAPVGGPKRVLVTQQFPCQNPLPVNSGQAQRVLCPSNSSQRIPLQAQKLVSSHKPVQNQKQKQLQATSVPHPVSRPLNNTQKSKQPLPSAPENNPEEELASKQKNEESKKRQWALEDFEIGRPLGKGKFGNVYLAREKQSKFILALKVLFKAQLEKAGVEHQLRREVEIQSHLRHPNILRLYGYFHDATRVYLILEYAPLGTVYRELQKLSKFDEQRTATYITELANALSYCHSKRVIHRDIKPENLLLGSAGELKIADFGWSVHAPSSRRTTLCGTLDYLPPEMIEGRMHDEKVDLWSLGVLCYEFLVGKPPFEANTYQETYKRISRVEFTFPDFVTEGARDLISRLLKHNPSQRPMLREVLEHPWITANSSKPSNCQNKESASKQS
experiment-notes: Z'-LYTE kinase assay Aurora A
Type: biochemical
condition-parameters: read-out: Kinase inhibition, IC50 Aurora A
Protocol: Kinase assays. The compounds from the example above were tested for their ability to inhibit kinases. […] Reactions were terminated by addition of stop buffer, and fluorescence emission intensity ratio 445 nm/520 nm (excited at 400 nm) was quantified by VICTOR-3 Multilabel Reader (Perkin-Elmer, Waltham, Mass., USA). Phosphorylation was calculated from the emission ratio. IC50 was determined using Sigmoid curve-fitting software Origin 6.0 (MicroCal, LLC, Northampton, Mass., USA).
# if measured IC50 < 0.3 µM: Criterion met  # else: Criterion not met

// below: answered molecules
>>> assigned_label("CCCn1cc(-c2ccnc(Nc3ccc(C)c(S(=O)(=O)N4CCOCC4)c3)n2)c2cccnc21")
"Criterion not met"
>>> assigned_label("CCn1cc(-c2ccnc(Nc3ccc(O)cc3)n2)c2cccnc21")
"Criterion met"
>>> assigned_label("CCn1cc(-c2ccnc(Nc3cccc(C#N)c3)n2)c2cccnc21")
"Criterion not met"
>>> assigned_label("CCn1cc(-c2ccnc(Nc3cccc(C(N)=O)c3)n2)c2cccnc21")
"Criterion met"
>>> assigned_label("CCCn1cc(-c2ccnc(Nc3ccc(S(N)(=O)=O)cc3)n2)c2cccnc21")
"Criterion not met"
>>> assigned_label("CCCn1cc(-c2ccnc(Nc3ccc(S(N)(=O)=O)cc3)n2)c2nc(Cl)cc(C)c21")
"Criterion not met"
>>> assigned_label("Oc1ccc(Nc2nccc(-c3cn(Cc4ccccc4)c4ccccc34)n2)cc1")
"Criterion not met"
>>> assigned_label("Oc1cccc(Nc2nccc(-c3cn(Cc4ccccc4)c4ccccc34)n2)c1")
"Criterion not met"

q: hey, is IC50 for Cc1cc(O)ccc1Nc1nccc(-c2cn(C)c3ccccc23)n1 lower than 0.3 µM or not?
a: Criterion not met
